The origin of these recorded values is ChEMBL document CHEMBL1255373.

As shown below, each of these molecules has a reported MIC90 value.
test system: Listeria monocytogenes; assay: Antibacterial activity against Listeria monocytogenes clinical isolate by broth microdilution method; assay type: functional

smiles_repr: C/C(=C\c1cc(F)c(OC[C@H](F)C2CC2)cc1F)C(=O)N[C@@H]1[C@H](O)[C@@H](O)[C@H]2OCO[C@H]2[C@@H]1O
unit_of_measurement: µg/mL
MIC90: 8
--
smiles_repr: C[C@H]1COc2c(N3CCN(C)CC3)c(F)cc3c(=O)c(C(=O)O)cn1c23.C[C@H]1COc2c(N3CCN(C)CC3)c(F)cc3c(=O)c(C(=O)O)cn1c23.O
unit_of_measurement: µg/mL
MIC90: 1
--
smiles_repr: CN[C@H](CC(C)C)C(=O)N[C@H]1C(=O)N[C@@H](CC(N)=O)C(=O)N[C@H]2C(=O)N[C@H]3C(=O)N[C@H](C(=O)N[C@H](C(=O)O)c4cc(O)cc(O)c4-c4cc3ccc4O)[C@H](O)c3ccc(c(Cl)c3)Oc3cc2cc(c3O[C@@H]2O[C@H](CO)[C@@H](O)[C@H](O)[C@H]2O[C@H]2C[C@](C)(N)[C@H](O)[C@H](C)O2)Oc2ccc(cc2Cl)[C@H]1O
unit_of_measurement: µg/mL
MIC90: 1
--
smiles_repr: CC(=O)NC[C@H]1CN(c2ccc(N3CCOCC3)c(F)c2)C(=O)O1
unit_of_measurement: µg/mL
MIC90: 2

* * *

test system: Enterococcus faecium; assay: Antibacterial activity against linezolid-resistant Enterococcus faecium 03B1074 by broth microdilution method; type: functional

compound: O=C(N[C@H](CO)[C@H](O)c1ccc([N+](=O)[O-])cc1)C(Cl)Cl [CHLORAMPHENICOL]
unit_of_measurement: µg/mL
inequality_sign: =
MIC: 32

compound: CC(=O)NC[C@H]1CN(c2ccc(N3CCOCC3)c(F)c2)C(=O)O1 [LINEZOLID]
unit_of_measurement: µg/mL
inequality_sign: =
MIC: 32

compound: C/C(=C\c1cc(F)c(OC[C@H](F)C2CC2)cc1F)C(=O)N[C@@H]1[C@H](O)[C@@H](O)[C@H]2OCO[C@H]2[C@@H]1O
unit_of_measurement: µg/mL
inequality_sign: =
MIC: 4

compound: CN[C@H](CC(C)C)C(=O)N[C@H]1C(=O)N[C@@H](CC(N)=O)C(=O)N[C@H]2C(=O)N[C@H]3C(=O)N[C@H](C(=O)N[C@H](C(=O)O)c4cc(O)cc(O)c4-c4cc3ccc4O)[C@H](O)c3ccc(c(Cl)c3)Oc3cc2cc(c3O[C@@H]2O[C@H](CO)[C@@H](O)[C@H](O)[C@H]2O[C@H]2C[C@](C)(N)[C@H](O)[C@H](C)O2)Oc2ccc(cc2Cl)[C@H]1O [VANCOMYCIN]
unit_of_measurement: µg/mL
inequality_sign: >
MIC: 32

* * *

As shown below, each of these compounds has a reported MIC50 value.
tested on: Streptococcus pneumoniae; experiment: Antibacterial activity against penicillin-nonsusceptible Streptococcus pneumoniae clinical isolate by broth microdilution method; assay type: functional

compound: CC1(C)S[C@@H]2[C@H](NC(=O)Cc3ccccc3)C(=O)N2[C@H]1C(=O)O [PENICILLIN G]
target_or_test_system: Streptococcus pneumoniae
unit_of_measurement: µg/mL
MIC50: 2

compound: CN[C@H](CC(C)C)C(=O)N[C@H]1C(=O)N[C@@H](CC(N)=O)C(=O)N[C@H]2C(=O)N[C@H]3C(=O)N[C@H](C(=O)N[C@H](C(=O)O)c4cc(O)cc(O)c4-c4cc3ccc4O)[C@H](O)c3ccc(c(Cl)c3)Oc3cc2cc(c3O[C@@H]2O[C@H](CO)[C@@H](O)[C@H](O)[C@H]2O[C@H]2C[C@](C)(N)[C@H](O)[C@H](C)O2)Oc2ccc(cc2Cl)[C@H]1O [VANCOMYCIN]
target_or_test_system: Streptococcus pneumoniae
unit_of_measurement: µg/mL
MIC50: 0.25

compound: CC(=O)NC[C@H]1CN(c2ccc(N3CCOCC3)c(F)c2)C(=O)O1 [LINEZOLID]
target_or_test_system: Streptococcus pneumoniae
unit_of_measurement: µg/mL
MIC50: 0.5

compound: C/C(=C\c1cc(F)c(OC[C@H](F)C2CC2)cc1F)C(=O)N[C@@H]1[C@H](O)[C@@H](O)[C@H]2OCO[C@H]2[C@@H]1O
target_or_test_system: Streptococcus pneumoniae
unit_of_measurement: µg/mL
MIC50: 0.25
